test: Plasma concentration versus time of Compound I and metabolite Compound III in patients dosed QD or BID with Form B of Compound II plus fulvestrant; format: in vivo, human; settings: human, plasma, oral, 650 mg, Cohort 5, 650 mg QD of Form B, Day 29, 0.0 h; read-out: Compound I Concentration, Min
Assay metric: concentration at 0 h (ng/mL)

CC(C)N1CCN(c2ccc(Nc3ncc4cc5n(c4n3)C3(CCCCC3)CNC5=O)nc2)CC1 | 11.4

----------
assay: Plasma concentration versus time of Compound I and metabolite Compound III in patients dosed QD or BID with Form B of Compound II plus fulvestrant; format: in vivo, human; settings: human, plasma, oral, 100 mg, Cohort 6, 100 mg BID of Form B, Day 29, 8.0 h; read-out: Compound I Concentration, Max
Assay metric: concentration at 8 h (ng/mL)

CC(C)N1CCN(c2ccc(Nc3ncc4cc5n(c4n3)C3(CCCCC3)CNC5=O)nc2)CC1 | 13.8

----------
test: Noncompartmental pharmacokinetic parameters (Cmax, Tmax, AUC, Racc) in QD and BID cohorts of Form B; format: in vivo, human; settings: human, plasma, oral, 100 mg, Cohort 6, 100 mg BID of Form B, Day 1; read-out: Cmax, Median
Assay metric: Cmax (ng/mL)

CC(C)N1CCN(c2ccc(Nc3ncc4cc5n(c4n3)C3(CCCCC3)CNC5=O)nc2)CC1 | 8.95

----------
assay: Plasma concentration versus time of Compound I and metabolite Compound III in patients dosed QD or BID with Form B of Compound II plus fulvestrant; type: in vivo, human; conditions: human, plasma, oral, 650 mg, 650 mg QD of Form B, Day 1, 0.0 h, Mean; read-out: Compound I Concentration
Assay metric: concentration at 0 h (ng/mL)

CC(C)N1CCN(c2ccc(Nc3ncc4cc5n(c4n3)C3(CCCCC3)CNC5=O)nc2)CC1 | 0

----------
assay: Plasma concentration versus time of Compound I and metabolite Compound III in patients dosed QD or BID with Form B of Compound II plus fulvestrant; type: in vivo, human; conditions: human, plasma, oral, 400 mg, 400 mg QD of Form B, Day 29, 3.0 h, Median; read-out: Compound I Concentration
Assay metric: concentration at 3 h

CC(C)N1CCN(c2ccc(Nc3ncc4cc5n(c4n3)C3(CCCCC3)CNC5=O)nc2)CC1 | 17.2 ng/mL

----------
test: Plasma concentration versus time of Compound I and metabolite Compound III in patients dosed QD or BID with Form B of Compound II plus fulvestrant; format: in vivo, human; conditions: human, plasma, oral, 650 mg, Cohort 5, 650 mg QD of Form B, Day 29, 3.0 h; read-out: Compound I Concentration, Median
Assay metric: concentration at 3 h (ng/mL)

CC(C)N1CCN(c2ccc(Nc3ncc4cc5n(c4n3)C3(CCCCC3)CNC5=O)nc2)CC1 [Compound I] | 28.4

----------
assay: Plasma concentration versus time of Compound I and metabolite Compound III in patients dosed QD or BID with Form B of Compound II plus fulvestrant; format: in vivo, human; details: human, plasma, oral, 650 mg, Cohort 5, 650 mg QD of Form B, Day 15; read-out: Trough Compound III Concentration, Median
Assay metric: concentration at 15 day

O=C1NCC2(CCCCC2)n2c1cc1cnc(Nc3ccc(N4CCNCC4)cn3)nc12 [Compound III] | 3.52 ng/mL

----------
assay: Plasma concentration versus time of Compound I and metabolite Compound III in patients dosed QD or BID with Form B of Compound II plus fulvestrant; assay type: in vivo, human; conditions: human, plasma, oral, 200 mg, Cohort 8, 200 mg BID of Form B, Day 29, 4.0 h; read-out: Compound I Concentration, Mean
Assay metric: concentration at 4 h (ng/mL)

CC(C)N1CCN(c2ccc(Nc3ncc4cc5n(c4n3)C3(CCCCC3)CNC5=O)nc2)CC1 | 21.1

----------
test: Plasma concentration versus time of Compound I and metabolite Compound III in patients dosed QD or BID with Form B of Compound II plus fulvestrant; assay type: in vivo, human; conditions: human, plasma, oral, 100 mg, 100 mg BID of Form B, Day 1, 4.0 h, Mean; read-out: Compound I Concentration
Assay metric: concentration at 4 h (ng/mL)

CC(C)N1CCN(c2ccc(Nc3ncc4cc5n(c4n3)C3(CCCCC3)CNC5=O)nc2)CC1 [Compound I] | 8.98

----------
Experiment: Plasma concentration versus time of Compound I and metabolite Compound III in patients dosed QD or BID with Form B of Compound II plus fulvestrant
Format: in vivo, human
Conditions: human, plasma, oral, 100 mg, Cohort 6, 100 mg BID of Form B, Day 22; read-out: Trough Compound I Concentration, Mean
Excerpt: Patients were enrolled into 1 of 2 parallel, independently operating, dose-escalation dosing cohorts with Form B of Compound II administered continuously either once daily (QD) or twice daily (BID) with food with fixed-dose fulvestrant (intramuscularly every 14 days for the first three injections and then every 28 days). Pre- or perimenopausal patients also received goserelin for the duration of study treatment. […]
Assay metric: concentration at 22 day (ng/mL)

CC(C)N1CCN(c2ccc(Nc3ncc4cc5n(c4n3)C3(CCCCC3)CNC5=O)nc2)CC1 | 5.7

----------
test: Pharmacokinetics of Compound I in healthy volunteers after a single dose of Form B of Compound II; assay type: in vivo, human; details: human, plasma, oral, single 600 mg dose of Form B of Compound II
Assay metric: half-life (min)

CC(C)N1CCN(c2ccc(Nc3ncc4cc5n(c4n3)C3(CCCCC3)CNC5=O)nc2)CC1 | 1030

----------
assay: Plasma concentration versus time of Compound I and metabolite Compound III in patients dosed QD or BID with Form B of Compound II plus fulvestrant; format: in vivo, human; conditions: human, plasma, oral, 100 mg, 100 mg BID of Form B, Day 1, 1.0 h, Mean; read-out: Compound I Concentration
Assay metric: concentration at 1 h

CC(C)N1CCN(c2ccc(Nc3ncc4cc5n(c4n3)C3(CCCCC3)CNC5=O)nc2)CC1 | 2.8 ng/mL

----------
experiment: Plasma concentration versus time of Compound I and metabolite Compound III in patients dosed QD or BID with Form B of Compound II plus fulvestrant; type: in vivo, human; conditions: human, plasma, oral, 500 mg, 500 mg QD of Form B, Day 1, 2.0 h, Mean; read-out: Compound I Concentration
Assay metric: concentration at 2 h

CC(C)N1CCN(c2ccc(Nc3ncc4cc5n(c4n3)C3(CCCCC3)CNC5=O)nc2)CC1 | 18.5 ng/mL

----------
test: Plasma concentration versus time of Compound I and metabolite Compound III in patients dosed QD or BID with Form B of Compound II plus fulvestrant; type: in vivo, human; settings: human, plasma, oral, 300 mg, 300 mg QD of Form B, Day 29, 6.0 h, Mean; read-out: Compound I Concentration
Assay metric: concentration at 6 h (µg/mL)

CC(C)N1CCN(c2ccc(Nc3ncc4cc5n(c4n3)C3(CCCCC3)CNC5=O)nc2)CC1 | 0.0359

----------
assay: Pharmacokinetics of Compound I in healthy volunteers after a single dose of Form B of Compound II; assay type: in vivo, human; conditions: human, blood, oral, single 200 mg dose of Form B of Compound II, read-out: Vz/F
Assay metric: Vd/F (L)

CC(C)N1CCN(c2ccc(Nc3ncc4cc5n(c4n3)C3(CCCCC3)CNC5=O)nc2)CC1 | 14500

----------
assay: Plasma concentration versus time of Compound I and metabolite Compound III in patients dosed QD or BID with Form B of Compound II plus fulvestrant; assay type: in vivo, human; details: human, plasma, oral, 100 mg, Cohort 6, 100 mg BID of Form B, Day 29, 8.0 h; read-out: Compound I Concentration, Median
Assay metric: concentration at 8 h (ng/mL)

CC(C)N1CCN(c2ccc(Nc3ncc4cc5n(c4n3)C3(CCCCC3)CNC5=O)nc2)CC1 | 6.57

----------
assay: Plasma concentration versus time of Compound I and metabolite Compound III in patients dosed QD or BID with Form B of Compound II plus fulvestrant; format: in vivo, human; details: human, plasma, oral, 200 mg, 200 mg QD of Form B, Day 1, 2.0 h, Mean; read-out: Compound I Concentration
Assay metric: concentration at 2 h (ng/mL)

CC(C)N1CCN(c2ccc(Nc3ncc4cc5n(c4n3)C3(CCCCC3)CNC5=O)nc2)CC1 | 13.6

----------
Assay: Noncompartmental pharmacokinetic parameters (Cmax, Tmax, AUC, Racc) in QD and BID cohorts of Form B
Format: in vivo, human
Details: human, plasma, oral, 300 mg, Compound I; 300 mg QD of Form B; Cohort 2; Day 29; read-out: AUClast (Median)
Method: Analysis of plasma concentration versus time data for calculation of standard pharmacokinetic (PK) parameters following oral administration was conducted using Phoenix WinNonlin version 6.3 using actual blood sampling times. […]
Assay metric: AUC(0-t) (µg·h/mL)

CC(C)N1CCN(c2ccc(Nc3ncc4cc5n(c4n3)C3(CCCCC3)CNC5=O)nc2)CC1 | 0.604
